molecular target: Nicotinamide phosphoribosyltransferase (Homo sapiens, UniProt P43490); experiment: Inhibition of NAMPT in human A2780 cells measured at 24 hrs
Sequence (P43490 whole entry): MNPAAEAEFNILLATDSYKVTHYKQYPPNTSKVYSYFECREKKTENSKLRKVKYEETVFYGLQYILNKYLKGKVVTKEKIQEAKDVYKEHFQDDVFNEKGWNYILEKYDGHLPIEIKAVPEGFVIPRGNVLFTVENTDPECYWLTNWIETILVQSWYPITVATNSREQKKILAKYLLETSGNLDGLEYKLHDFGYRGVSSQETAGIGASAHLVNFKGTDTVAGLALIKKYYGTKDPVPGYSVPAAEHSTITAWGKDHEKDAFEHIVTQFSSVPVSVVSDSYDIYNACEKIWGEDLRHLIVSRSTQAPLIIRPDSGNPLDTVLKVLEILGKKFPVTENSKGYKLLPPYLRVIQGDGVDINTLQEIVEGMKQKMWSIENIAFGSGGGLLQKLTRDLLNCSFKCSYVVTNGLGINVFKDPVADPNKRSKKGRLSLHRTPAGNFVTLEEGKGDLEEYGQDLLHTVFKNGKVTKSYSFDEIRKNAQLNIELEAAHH
Measured quantity: IC50 (µM)
Express it in µM; write the number only.

Consider the compound shown here: `O=S(=O)(c1ccc(NC(=S)NCc2cccnc2)cc1)N1CCNCC1` What is its recorded IC50? 7.18

* * *

biological target: Nicotinamide phosphoribosyltransferase (Homo sapiens, UniProt P43490); test: Inhibition of NAMPT in human A2780 cells measured at 48 hrs
Measured quantity: IC50 (µM)
Record the value in µM, omitting the unit from your answer.

Hello, I am looking for reported IC50 with Nicotinamide phosphoribosyltransferase (Homo sapiens, UniProt P43490) for `O=S(=O)(c1ccc(NC(=S)NCc2cccnc2)cc1)N1CCNCC1` . Could you help? 4.05

* * *

target: Nicotinamide phosphoribosyltransferase (Homo sapiens, UniProt P43490); assay: Inhibition of NAMPT in human A2780 cells measured at 6 hrs
Measured quantity: IC50

Requested field: IC50. Item: `O=S(=O)(c1ccc(NC(=S)NCc2cccnc2)cc1)N1CCNCC1` > 10 µM
